# System Name: Serine/threonine-protein kinase 33 (Homo sapiens) (UniProt Q9BYT3)
# Sequence (Q9BYT3 whole entry, looked up): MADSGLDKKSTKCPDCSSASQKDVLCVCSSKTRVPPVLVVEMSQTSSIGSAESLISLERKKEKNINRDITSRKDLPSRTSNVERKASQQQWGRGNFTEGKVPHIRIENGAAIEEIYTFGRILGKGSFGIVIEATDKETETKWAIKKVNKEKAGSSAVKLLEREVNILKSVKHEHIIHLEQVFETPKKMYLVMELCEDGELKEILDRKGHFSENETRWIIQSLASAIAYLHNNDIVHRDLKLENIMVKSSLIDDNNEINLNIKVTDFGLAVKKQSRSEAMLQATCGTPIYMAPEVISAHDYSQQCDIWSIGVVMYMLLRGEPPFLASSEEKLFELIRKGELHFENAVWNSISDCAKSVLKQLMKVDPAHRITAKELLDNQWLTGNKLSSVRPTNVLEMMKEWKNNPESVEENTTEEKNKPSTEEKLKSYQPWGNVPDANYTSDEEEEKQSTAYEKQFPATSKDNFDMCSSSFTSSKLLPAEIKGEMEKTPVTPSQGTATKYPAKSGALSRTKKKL
# Test: STK33 kinase inhibitors, potency, dose response, biochemical, ADP-Glo luminescence, dry powder (AID 588632)
# Condition Info: purified STK33, MBP phosphorylation
Results filed as inconclusive are left out.
Measure: AC50

Hi, could you look up AC50 for each item in my list?
1. COc1cc(/C=N/n2c(-c3ccccc3)n[nH]c2=S)ccc1O
2. COc1cc(C(=O)N2CCC(N3CCN(C)CC3)CC2)ccc1Nc1ncc2c(n1)N(C)c1ccccc1C(=O)N2C
3. CC(Oc1ccc2c(c1)c1ccnc3c4ccccc4c(=O)n2c13)C(=O)NCCN1CCOCC1 (stereo not given)
4. CC(=O)N(C)c1ccc(N=Cc2c(O)ccc3ccccc23)cc1
5. CN1CCN(c2ccc(Nc3ncc4c(n3)N(C)c3ccccc3C(=O)N4C)cc2)CC1

Result:
["0.695 µM", "6.45 µM", "0.168 µM", "1.13 µM", "1.13 µM"]

====

Provide the reported AC50 of each item.
# System Name: Serine/threonine-protein kinase 33 (Homo sapiens) (UniProt Q9BYT3)
# Test: STK33 kinase inhibitors, potency, dose response, biochemical, ADP-Glo luminescence, dry powder (AID 588632)
# Condition Info: purified STK33, MBP phosphorylation
Inconclusive results are not listed.

Some solved cases for reference:
COc1cc(N2CCN(C)CC2)ccc1Nc1ncc2c(n1)N(C)c1sccc1C(=O)N2C : 1560 nM
COc1cc(N2CCC(N3CCN(C)CC3)CC2)ccc1Nc1ncc2c(n1)N(C1CCCC1)C(C)CC(=O)N2C (stereo unspecified) : 2200 nM
COC(=O)c1ccc(COc2ccccc2/C=C/C(=O)c2ccc(OCC(=O)O)cc2)cc1 : 400 nM

Each molecule below has a reported value. Please supply its AC50.
1. COc1cc(/C=C2\SC(N)=NC2=O)ccc1O
2. O=C(Nc1ccccc1-c1ccccc1)c1ccc(Br)o1

Result:
1. 574 nM
2. 1580 nM

State recorded AC50 for all listed molecules.
1. O=C(Nc1ccccc1-c1nc2ccccc2[nH]c1=O)c1cccs1
2. O=C1NCCCc2c1oc1ccc(O)cc21
3. Oc1ccc(Nc2nc(-c3ccccc3O)nc3ccccc23)cc1
4. CCOc1ccccc1C(=O)Nc1cc(Cl)ccc1O
5. COc1cc(N2CCN(C)CC2)ccc1Nc1ncc2c(n1)N1CCC[C@H]1CC(=O)N2C
6. Nc1nc(-c2cc(O)ccc2[N+](=O)[O-])cc(-c2ccccc2)c1[N+](=O)[O-]

Result:
1: 331 nM; 2: 939 nM; 3: 811 nM; 4: 1250 nM; 5: 409 nM; 6: 151 nM

Could I get AC50 for every one of these entries?
1. COc1cc(N2CCC(O)CC2)ccc1Nc1ncc2c(n1)N1CCc3cccc(c31)C(=O)N2C
2. COc1cc(C(=O)NC2CCN(C)CC2)ccc1Nc1ncc2c(n1)N(C1CCC(O)CC1)CCC(=O)N2C (stereo unspecified)
3. CCCn1c(NC(=O)c2cccc(S(=O)(=O)N3CCCC3)c2)nc2ccccc21
4. Cc1ncc(/C=C2\C(=O)Nc3ccccc32)[nH]1
5. O=C1NC(=NCc2ccccc2)S/C1=C/c1ccc(O)cc1

Result:
1. 509 nM
2. 1180 nM
3. 122 nM
4. 795 nM
5. 522 nM

Below are some molecules; for each one, tell me its AC50.
1. CC(C)n1cnc2c(Nc3cccc(Cl)c3)nc(NCCO)nc21
2. COc1cc(N2CCC(N3CCN(C)CC3)CC2)ccc1Nc1ncc2c(n1)N1CCC[C@H]1CC(=O)N2C
3. COc1cc(/C=C2\SC(=Nc3ccccc3OC)NC2=O)ccc1O

Result:
632 nM
1880 nM
314 nM

Report AC50 for each item below.
1. COc1cc(N2CCN(C)CC2)ccc1Nc1ncc2c(n1)N(C1CCCC1)C(C)CC(=O)N2C (stereo unspecified)
2. COc1cc(N2CCN(C)CC2)ccc1Nc1ncc2c(n1)N(C)c1ccccc1C(=O)N2C

Result:
1. 910 nM
2. 1600 nM
